Tested on: IGROV1 ovarian
Assay: NCI tumour cell line growth inhibition, 48 h
Below: a set of entries, each annotated with reported TGI.

{"columns": ["COMPOUND", "TGI"],
 "data": [
  ["OC(CC(CC(O)(C(F)(F)Cl)C(F)(F)Cl)=NNc1ccccc1)(C(F)(F)Cl)C(F)(F)Cl", "> 10 µM"],
  ["O=C1c2ccccc2NC(c2cc(Cl)cc(Cl)c2O)N1CCc1ccccn1 (stereo not drawn)", "> 100 µM"],
  ["COc1c(C2=NC(C(C)C)CO2)ccc2ccccc12 (stereo not drawn)", "> 100 µM"],
  ["COc1ccc(OC)c([N+](=O)[O-])c1-c1nc2sccn2c1/C=N/N=C(N)N", "> 100 µM"],
  ["CCCCCCCC(=O)OC[C@@H](C[As](=O)(O)O)OC(=O)CCCCCCC", "16.4 µM"],
  ["Cc1cc(=O)oc2c(CN3CCCCC3)c(O)ccc12", "> 100 µM"],
  ["CCC[C@H](O)[C@@H](CNc1cc(NC(C)=O)nc(NC(C)=O)n1)N(Cc1ccccc1)Cc1ccccc1", "50.9 µM"],
  ["O=C1CSC(/C(=C/c2ccccc2)c2nc3ccccc3[nH]2)=N1", "> 100 µM"],
  ["C=C(C)C#CC(O)(C(=O)OC1CCN(C)CC1)C(C)C (stereo not drawn)", "> 100 µM"],
  ["COC(=O)c1ccccc1/C=C1/Cc2cccc(C)c2C1=O", "> 100 µM"],
  ["CC1CC(=O)Nc2cc(Cl)ccc2N1C(=O)C1CC1 (stereo not drawn)", "> 100 µM"],
  ["Cc1c(/C=N/NC(=S)Nc2cccc(Cl)c2)c(=O)n(-c2ccccc2)n1C", "42.4 µM"],
  ["COC(=O)[C@H]1[C@H]2C[C@@H]3c4[nH]c5cc(OC)ccc5c4CCN3C[C@H]2C[C@@H](OC(=O)c2cc(OC)c(OC)c(OC)c2)[C@@H]1OC", "47.1 µM"],
  ["CCC1=C(C)/C(=C/c2[nH]c(C(Br)Br)c(CC)c2C)N=C1C(Br)Br", "> 100 µM"],
  ["CC(C)N(C(=O)C12C3C4C5C3C1(C(=O)N(C(C)C)C(C)C)C5(C#N)C42)C(C)C (stereo not drawn)", "> 100 µM"],
  ["C=C(C)[C@@H]1C[C@H]2O[C@](O)(C(=C)CC(=O)/C=C(/C)C[C@@H]3OC(=O)[C@]24O[C@@H]34)[C@H]1O", "> 100 µM"],
  ["COc1cc(N2CCN(C(C)C)CC2)ccc1Nc1nc(Nc2cccc3ncccc23)c2cc[nH]c2n1", "> 25 µM"],
  ["COC(=O)C1=C(OC(=O)/C(=C/c2ccc(Cl)cc2Cl)c2ccc(Cl)cc2Cl)C(C(=O)OC)[C@@]2(O)[C@@H](C(=O)OC)[C@H](C)C[C@@H]1[C@@H]2C(=O)OC (stereo partly drawn)", "> 100 µM"],
  ["C=C1C(=O)O[C@H]2[C@H]1CC/C(Cn1cc(CNCCc3c[nH]c4ccc(Cl)cc34)nn1)=C\\CC[C@@]1(C)O[C@@H]21", "9.59 µM"],
  ["COc1ccc2c(c1)[C@]1(C[C@H]1c1ccc3c(/C=C/c4ccc(CN5C[C@@H](C)O[C@@H](C)C5)cc4)n[nH]c3c1)C(=O)N2", "> 100 µM"],
  ["NCCC(=O)N[C@H](Cc1cc(O)c(O)c(SCC(NC(=O)CC[C@H](N)C(=O)O)C(=O)NCC(=O)O)c1)C(=O)O (stereo partly drawn)", "> 50 µM"],
  ["CC1=CCC2(C#N)CCC1C2O (stereo not drawn)", "> 100 µM"],
  ["CC1CC(C)[C@H](O)C([C@H](O)CC2CC(=O)N(C)C(=O)C2)C1 (stereo partly drawn)", "> 100 µM"],
  ["COc1cc(O)c2c(=O)c(OC)c(-c3ccc4c(c3)OCO4)oc2c1", "> 100 µM"],
  ["O=S(=O)(Nc1cc(Br)c(O)c2ccccc12)c1ccc(F)cc1", "5.51 µM"],
  ["Cn1c(NN)nc(-c2ccc([N+](=O)[O-])cc2)c(C#N)c1=O", "39.9 µM"],
  ["O[C@@]1(c2cccs2)c2cccc(Cl)c2[C@](O)(c2cccs2)c2cccc(Cl)c21", "33 µM"],
  ["O=C1NCN(c2ccccc2)C12CCN(CCc1ccc3[nH]c(=S)[nH]c3c1)CC2", "> 100 µM"],
  ["COc1ccc(C(C#N)NC23CC4CC(CC(C4)C2)C3)cc1OC (stereo not drawn)", "> 100 µM"],
  ["Oc1c(C(Nc2cccc3ccccc23)c2ccccc2)ccc2cccnc12 (stereo not drawn)", "11 µM"],
  ["CCOC(=O)N1CCN(c2c(C)nc(C)[nH]c2=O)CC1", "> 100 µM"],
  ["O=S1CSCS1 (stereo not drawn)", "> 100 µM"],
  ["N#CC(c1ccc(Cl)cc1)c1c(O)nc2ccc(=N)cc-2n1O (stereo not drawn)", "> 100 µM"]
]}
